- target_entity: Voltage-dependent T-type calcium channel subunit alpha-1H (Homo sapiens, UniProt O95180)
- Sequence (O95180 whole entry): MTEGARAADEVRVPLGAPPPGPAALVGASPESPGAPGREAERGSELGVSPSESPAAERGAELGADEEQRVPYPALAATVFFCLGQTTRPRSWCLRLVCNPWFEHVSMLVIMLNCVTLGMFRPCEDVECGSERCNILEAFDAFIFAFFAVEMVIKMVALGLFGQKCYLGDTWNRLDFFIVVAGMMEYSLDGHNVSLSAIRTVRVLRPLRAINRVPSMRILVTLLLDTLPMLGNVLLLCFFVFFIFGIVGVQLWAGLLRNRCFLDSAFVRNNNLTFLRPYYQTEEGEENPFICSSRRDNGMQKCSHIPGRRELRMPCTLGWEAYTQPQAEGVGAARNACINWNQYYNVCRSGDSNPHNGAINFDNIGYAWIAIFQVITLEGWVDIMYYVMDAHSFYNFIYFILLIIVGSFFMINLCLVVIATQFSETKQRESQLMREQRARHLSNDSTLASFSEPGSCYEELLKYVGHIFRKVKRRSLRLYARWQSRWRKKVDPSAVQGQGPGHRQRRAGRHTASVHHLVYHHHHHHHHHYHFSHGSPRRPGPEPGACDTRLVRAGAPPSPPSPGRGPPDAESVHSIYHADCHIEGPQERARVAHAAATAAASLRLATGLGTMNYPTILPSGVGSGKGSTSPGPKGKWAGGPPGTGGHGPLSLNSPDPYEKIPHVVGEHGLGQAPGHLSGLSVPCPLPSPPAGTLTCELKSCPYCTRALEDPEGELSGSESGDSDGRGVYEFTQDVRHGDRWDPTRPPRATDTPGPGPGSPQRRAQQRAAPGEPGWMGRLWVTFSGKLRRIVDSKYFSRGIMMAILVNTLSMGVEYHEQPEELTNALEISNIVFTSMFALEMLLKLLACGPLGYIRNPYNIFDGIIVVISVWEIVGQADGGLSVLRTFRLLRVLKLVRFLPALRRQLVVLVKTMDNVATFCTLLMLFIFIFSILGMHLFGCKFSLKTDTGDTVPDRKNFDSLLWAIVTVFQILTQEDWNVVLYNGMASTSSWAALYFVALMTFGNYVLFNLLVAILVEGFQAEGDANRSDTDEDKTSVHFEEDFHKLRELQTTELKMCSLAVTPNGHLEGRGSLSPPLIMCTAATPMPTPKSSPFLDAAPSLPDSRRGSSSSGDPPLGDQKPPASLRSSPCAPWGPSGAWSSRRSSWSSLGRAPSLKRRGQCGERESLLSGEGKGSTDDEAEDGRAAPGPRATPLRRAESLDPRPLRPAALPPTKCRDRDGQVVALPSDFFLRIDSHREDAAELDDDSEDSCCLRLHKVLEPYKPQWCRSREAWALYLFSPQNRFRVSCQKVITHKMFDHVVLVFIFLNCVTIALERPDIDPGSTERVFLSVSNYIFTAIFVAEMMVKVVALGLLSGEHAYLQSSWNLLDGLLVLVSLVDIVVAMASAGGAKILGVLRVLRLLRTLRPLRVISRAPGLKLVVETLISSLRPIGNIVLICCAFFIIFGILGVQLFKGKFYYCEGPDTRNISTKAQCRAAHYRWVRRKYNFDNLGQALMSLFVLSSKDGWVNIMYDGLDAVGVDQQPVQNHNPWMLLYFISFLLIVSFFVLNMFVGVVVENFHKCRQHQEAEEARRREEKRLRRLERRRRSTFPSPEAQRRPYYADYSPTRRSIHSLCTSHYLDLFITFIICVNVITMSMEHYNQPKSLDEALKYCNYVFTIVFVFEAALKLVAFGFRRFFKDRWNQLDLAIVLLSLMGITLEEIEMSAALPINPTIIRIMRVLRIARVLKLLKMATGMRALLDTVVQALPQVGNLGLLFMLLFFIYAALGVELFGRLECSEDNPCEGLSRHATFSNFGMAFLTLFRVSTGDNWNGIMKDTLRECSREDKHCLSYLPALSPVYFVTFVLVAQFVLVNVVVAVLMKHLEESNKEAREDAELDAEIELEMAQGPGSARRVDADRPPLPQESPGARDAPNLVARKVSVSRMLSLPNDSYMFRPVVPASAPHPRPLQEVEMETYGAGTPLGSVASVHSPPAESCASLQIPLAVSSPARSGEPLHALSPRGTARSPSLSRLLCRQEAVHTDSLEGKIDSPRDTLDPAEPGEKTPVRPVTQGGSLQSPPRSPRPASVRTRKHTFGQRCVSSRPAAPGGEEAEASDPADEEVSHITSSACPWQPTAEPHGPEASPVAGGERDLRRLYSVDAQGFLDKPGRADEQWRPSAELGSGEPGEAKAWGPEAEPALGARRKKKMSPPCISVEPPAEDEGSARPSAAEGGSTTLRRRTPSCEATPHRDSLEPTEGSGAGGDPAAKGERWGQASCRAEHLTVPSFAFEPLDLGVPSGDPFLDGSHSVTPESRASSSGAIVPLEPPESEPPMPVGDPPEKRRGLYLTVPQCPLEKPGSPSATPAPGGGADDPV
- experiment_notes: Inhibition of Cav3.2 (unknown origin) assessed as reduction in KCl-induced increase in intracellular calcium level at 10 uM by fura-2 AM indicator based FDSS assay relative to control
- Format: cell-based
quantity: inhibition (%)
Express your answer in %, writing the number without its unit.

These recorded examples may help you get a feel for the data.
[[record]]
molecule = "CC(C)c1cc(C(=O)NC[C@H]2CCN(Cc3cccnc3)C2)on1"
quantitative_result = 11.6

[[record]]
molecule = "COC(=O)C1=C(C)NC(C)=C(C(=O)NC[C@H]2CCN(CCc3ccc(OC(F)(F)F)c(F)c3)C2)C1c1cccc([N+](=O)[O-])c1 (stereo partly drawn)"
quantitative_result = 33.7

[[record]]
molecule = "COC(=O)C1=C(C)NC(C)=C(C(=O)NC[C@H]2CCNC2)C1c1cccc([N+](=O)[O-])c1 (stereo partly drawn)"
quantitative_result = 21.8

[[record]]
molecule = "COC(=O)C1=C(C)NC(C)=C(C(=O)NC[C@H]2CCN(CCc3ccc(Cl)c(F)c3)C2)C1c1cccc([N+](=O)[O-])c1 (stereo partly drawn)"
quantitative_result = 69.7

[[record]]
molecule = "Cc1ccc(CCN2CC[C@H](CNC(=O)c3cc(C(C)C)no3)C2)cc1C(F)(F)F"
quantitative_result = 51.9

[[record]]
molecule = "COC(=O)C1=C(C)NC(C)=C(C(=O)NC[C@H]2CCN(CCc3ccc(C)c(C(F)(F)F)c3)C2)C1c1cccc([N+](=O)[O-])c1 (stereo partly drawn)"
quantitative_result = 65.2

[[record]]
molecule = "CC(C)c1cc(C(=O)NC[C@H]2CCNC2)on1"
quantitative_result = 8.36


Consider now this further molecule.
GET /values?readout=inhibition&system=Voltage-dependent T-type calcium channel subunit alpha-1H (Homo sapiens, UniProt O95180)&item= CC(C)c1cc(C(=O)NC[C@H]2CCN(CCc3ccc(OC(F)(F)F)c(F)c3)C2)on1
59.7
